molar heat capacity at constant pressure reference
- Test Description: molar heat capacity at constant pressure
- Condition Context: 333.15 K; 101.33 kPa; Liquid; Large sample (1 g) DSC
± gives the expanded uncertainty stated by the source.
Quick note: unit goes after the number.

1) CC[n+]1cccc(C)c1.O=S(=O)([N-]S(=O)(=O)C(F)(F)F)C(F)(F)F; 522 ± 53 J/K/mol

// switching to the query molecule
I have this molecule here, CCCC[n+]1cccc(C)c1.O=S(=O)([O-])C(F)(F)F [1-butyl-3-methylpyridinium trifluoromethanesulfonate] , and I need its recorded molar heat capacity at constant pressure. 474 ± 48 J/K/mol

====

molar heat capacity at constant pressure reference
- Test Description: molar heat capacity at constant pressure
- Condition Context: 299.15 K; 101.33 kPa; Liquid; Large sample (1 g) DSC
Numbers after ± are expanded uncertainties.
Quick note: unit goes after the number.

Sample answers from the record:
1. CC[n+]1cccc(C)c1.O=S(=O)([N-]S(=O)(=O)C(F)(F)F)C(F)(F)F; 493 ± 50 J/K/mol
2. CCC[n+]1cccc(C)c1.O=S(=O)([N-]S(=O)(=O)C(F)(F)F)C(F)(F)F; 518 ± 52 J/K/mol
3. CCCC[n+]1cccc(C)c1.O=S(=O)([N-]S(=O)(=O)C(F)(F)F)C(F)(F)F; 550 ± 56 J/K/mol

// switching to the query compound
I have this compound here, CCCCn1cc[n+](C)c1.N#CN=C=[N-] [1-butyl-3-methylimidazolium dicyanamide] , and I need its recorded molar heat capacity at constant pressure. 377 ± 38 J/K/mol

Taken from the NIST ThermoML archive (doi:10.1016/j.tca.2013.05.007).
